Test: yeast display, Sf9 membrane polyspecificity reagent, FACS + sequencing; frameworks hold sequencing errors
METRIC_NAME: polyreactivity (PSR sort gate)

Example entries and their recorded answers appear below.
What does the data say about its polyreactivity (PSR sort gate)? Entry: `QVQLVESGGGLVQAGGSLRLSCAASGLTFYYNAMGWYRQAPGKERELVAAITRGTSTHYADSVKWRFTISRDNAKNTVYLQMNSLKPEDTAVYYCAAPYRYSWWRGDYWGQGTQVTVSS` high polyreactivity

What does the data say about its polyreactivity (PSR sort gate)? Entry: `QVQLVESGGGLVQAGGSLRLSCAASGIIFEYYAMGWSRPAPGKERQLVAAISSSGGSTYYADSVKVRFTISRDNAKNTVYLQMNSLKPEDTAVYYCATRYAASTSRWQYYYWGQGTQVTVSS` high polyreactivity

What does the data say about its polyreactivity (PSR sort gate)? Entry: `QVQLVESGGGLVQAGGSLRLSCAASGGTFSDNAMGWYRQAPGKERELVADIDIGGITYYADSVKGRFTISRDNAKNTVYLQMNSLIPEDTAVYYCAAVTTYYYYDVTDYAYEYYYWRQGTQVTVSS` low polyreactivity

What does the data say about its polyreactivity (PSR sort gate)? Entry: `QVQLVESGGGLVQAGGSLRLSCAASGFIFTDNVMGWYRQAPGKERELVAAISRRGGSTYYADSVKGRFTISRDNAKNTVYLQMNSLKPEDTAVYYCNVARQSYLLDYWGQGTQVTVSS` high polyreactivity

What does the data say about its polyreactivity (PSR sort gate)? Entry: `QVQLVESGGGLVQAGGSLRLSCAASGRTFGGYTMGWYRQAPGKERELVAAINWSGTTYYADSVKGRFTISRDNAKNTVYLQMNSLIPEDTAVYYCAASLVSYYGLARDSVDYWGQGTQVNVSS` low polyreactivity

Let us examine a further case.
What does the data say about its polyreactivity (PSR sort gate)? Entry: `QVQLVESGGGLVQAGGSLRLSCAASGSIVGGYDMGWYRQAPGKERELVAVINSNGGSTYYADSVKGRFTISRDNANNTVYLQMNSLKPEDTAVYYCAADYESYVYIGYGYWGQGTQVTVSS` low polyreactivity

Taken from the nanobody polyreactivity screen of Harvey et al. (2022).
